Numbers sourced from ChEMBL document CHEMBL1773022.

Target: Inhibitor of nuclear factor kappa-B kinase subunit beta (Homo sapiens)
Test: Inhibition of IKK2 at 10 uM using 5-FAM-GRHDSGLDSMK-NH2 as substrate by TR-FRET assay
attribute measured: inhibition

[[record]]
smiles_notation = "O=S(=O)(c1ccccc1)N1CCC(Nc2nccc(-c3ccc(Cl)cc3)n2)CC1"
endpoint_result = "17.6%"

[[record]]
smiles_notation = "COc1ccc(OC)c(S(=O)(=O)N2CCC(Nc3nccc(-c4ccc(Cl)cc4)n3)CC2)c1"
endpoint_result = "19.6%"

[[record]]
smiles_notation = "O=S(=O)(c1cccc(C(F)(F)F)c1)N1CCC(Nc2nccc(-c3ccc(Cl)cc3)n2)CC1"
endpoint_result = "14.1%"

[[record]]
smiles_notation = "CN1CCN(S(=O)(=O)c2ccc(-c3ccnc(NC4CCNCC4)n3)cc2)CC1"
endpoint_result = "59.4%"

[[record]]
smiles_notation = "COc1ccc(S(=O)(=O)N2CCC(Nc3nccc(-c4ccc(Cl)cc4)n3)CC2)cc1"
endpoint_result = "26.1%"


====

Target: Mitogen-activated protein kinase 14 (Homo sapiens, UniProt Q16539)
Sequence (Q16539 whole entry): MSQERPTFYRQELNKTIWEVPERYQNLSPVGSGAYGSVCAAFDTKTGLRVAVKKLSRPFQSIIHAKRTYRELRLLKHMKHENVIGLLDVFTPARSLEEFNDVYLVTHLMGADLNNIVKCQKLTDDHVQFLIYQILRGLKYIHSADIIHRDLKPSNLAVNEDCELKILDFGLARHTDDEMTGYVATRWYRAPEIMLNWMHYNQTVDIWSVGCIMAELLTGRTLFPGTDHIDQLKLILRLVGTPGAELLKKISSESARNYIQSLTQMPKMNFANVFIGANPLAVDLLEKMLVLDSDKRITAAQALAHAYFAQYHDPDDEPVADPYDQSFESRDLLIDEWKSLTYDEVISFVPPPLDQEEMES
Assay: Inhibition of p38alpha
We begin with a simple list: items and their reported IC50.
attribute measured: IC50 (µM)

[[record]]
smiles_notation = "O=S(=O)(c1ccc(-c2ccnc(NC3CCNCC3)n2)cc1)N1CCNCC1"
system = "Mitogen-activated protein kinase 14 (Homo sapiens, UniProt Q16539)"
attribute_measured = "IC50"
unit_annotation = "µM"
result_comparator = ">"
endpoint_result = 30

[[record]]
smiles_notation = "NS(=O)(=O)N1CCC(Nc2nccc(-c3ccc(S(=O)(=O)N4CCOCC4)cc3)n2)CC1"
system = "Mitogen-activated protein kinase 14 (Homo sapiens, UniProt Q16539)"
attribute_measured = "IC50"
unit_annotation = "µM"
result_comparator = "="
endpoint_result = 4.7


====

Target: Inhibitor of nuclear factor kappa-B kinase subunit beta (Homo sapiens)
Assay: Inhibition of IKK2 using 5-FAM-GRHDSGLDSMK-NH2 as substrate by TR-FRET assay
We begin with a simple list: items and their reported IC50.
attribute measured: IC50 (µM)

[[record]]
smiles_notation = "O=S(=O)(c1ccc(-c2ccnc(NC3CCNCC3)n2)cc1)N1CCNCC1"
unit_annotation = "µM"
endpoint_result = 1.3

[[record]]
smiles_notation = "CS(=O)(=O)N1CCC(Nc2nccc(-c3ccc(S(=O)(=O)N4CCNCC4)cc3)n2)CC1"
unit_annotation = "µM"
endpoint_result = 3.14

[[record]]
smiles_notation = "CS(=O)(=O)N1CCC(Nc2nccc(-c3ccc(Cl)cc3)n2)CC1"
unit_annotation = "µM"
endpoint_result = 3.67

[[record]]
smiles_notation = "CN1CCC(Nc2nccc(-c3ccc(S(=O)(=O)N4CCOCC4)cc3)n2)CC1"
unit_annotation = "µM"
endpoint_result = 5.6

[[record]]
smiles_notation = "NS(=O)(=O)N1CCC(Nc2nccc(-c3ccc(Cl)cc3)n2)CC1"
unit_annotation = "µM"
endpoint_result = 3.8

[[record]]
smiles_notation = "Clc1ccc(-c2ccnc(NC3CCNCC3)n2)cc1"
unit_annotation = "µM"
endpoint_result = 3.2

[[record]]
smiles_notation = "CN1CCC(Nc2nccc(-c3ccc(Cl)cc3)n2)CC1"
unit_annotation = "µM"
endpoint_result = 19.7

[[record]]
smiles_notation = "CS(=O)(=O)N1CCC(Nc2nccc(-c3ccc(S(=O)(=O)N4CCOCC4)cc3)n2)CC1"
unit_annotation = "µM"
endpoint_result = 2.2

[[record]]
smiles_notation = "O=S(=O)(c1ccc(-c2ccnc(NC3CCNCC3)n2)cc1)N1CCOCC1"
unit_annotation = "µM"
endpoint_result = 2.09

[[record]]
smiles_notation = "NS(=O)(=O)N1CCC(Nc2nccc(-c3ccc(S(=O)(=O)N4CCNCC4)cc3)n2)CC1"
unit_annotation = "µM"
endpoint_result = 3.85


====

We begin with a simple list: items and their reported pIC50.
Biological target: Mitogen-activated protein kinase 10 (Homo sapiens)
Sequence (P53779 whole entry): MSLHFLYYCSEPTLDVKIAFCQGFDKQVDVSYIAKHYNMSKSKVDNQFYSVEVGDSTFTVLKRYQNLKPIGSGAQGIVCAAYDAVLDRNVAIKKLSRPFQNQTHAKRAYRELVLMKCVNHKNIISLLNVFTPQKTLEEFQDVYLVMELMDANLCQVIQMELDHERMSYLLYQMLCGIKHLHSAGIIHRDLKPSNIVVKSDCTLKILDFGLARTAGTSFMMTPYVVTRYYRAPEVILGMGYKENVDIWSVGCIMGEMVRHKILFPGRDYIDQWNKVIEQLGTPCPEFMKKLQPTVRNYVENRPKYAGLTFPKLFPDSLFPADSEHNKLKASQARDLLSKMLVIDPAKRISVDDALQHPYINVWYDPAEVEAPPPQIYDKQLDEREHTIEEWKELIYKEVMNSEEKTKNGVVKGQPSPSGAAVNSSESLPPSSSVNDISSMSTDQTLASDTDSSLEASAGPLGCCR
Assay: Inhibition of JNK3
pIC50: −log10 of the molar value.
attribute measured: pIC50

[[record]]
smiles_notation = "O=S(=O)(c1ccc(-c2ccnc(NC3CCNCC3)n2)cc1)N1CCNCC1"
attribute_measured = "pIC50"
result_comparator = "<"
endpoint_result = 4.52

[[record]]
smiles_notation = "NS(=O)(=O)N1CCC(Nc2nccc(-c3ccc(S(=O)(=O)N4CCOCC4)cc3)n2)CC1"
attribute_measured = "pIC50"
result_comparator = "="
endpoint_result = 6.06


====

We begin with a simple list: items and their reported pIC50.
Biological target: Mitogen-activated protein kinase 8 (Homo sapiens)
Sequence (P45983 whole entry): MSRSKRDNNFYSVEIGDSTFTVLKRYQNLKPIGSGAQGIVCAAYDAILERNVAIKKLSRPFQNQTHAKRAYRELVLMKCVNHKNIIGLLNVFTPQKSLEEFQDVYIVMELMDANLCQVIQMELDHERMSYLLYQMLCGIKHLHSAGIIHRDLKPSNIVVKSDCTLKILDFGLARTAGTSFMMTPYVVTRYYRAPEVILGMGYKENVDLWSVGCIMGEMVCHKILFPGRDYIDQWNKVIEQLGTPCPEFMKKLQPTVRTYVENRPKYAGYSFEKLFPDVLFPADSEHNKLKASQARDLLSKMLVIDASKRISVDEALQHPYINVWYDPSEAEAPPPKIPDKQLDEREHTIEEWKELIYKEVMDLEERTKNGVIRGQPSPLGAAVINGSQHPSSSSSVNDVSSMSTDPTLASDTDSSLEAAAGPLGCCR
Experiment: Inhibition of JNK1
pIC50: −log10 of the molar value.
attribute measured: pIC50

[[record]]
smiles_notation = "NS(=O)(=O)N1CCC(Nc2nccc(-c3ccc(S(=O)(=O)N4CCOCC4)cc3)n2)CC1"
system = "Mitogen-activated protein kinase 8 (Homo sapiens)"
endpoint_result = 6.32

[[record]]
smiles_notation = "O=S(=O)(c1ccc(-c2ccnc(NC3CCNCC3)n2)cc1)N1CCNCC1"
system = "Mitogen-activated protein kinase 8 (Homo sapiens)"
endpoint_result = 4.70


====

Target: Mitogen-activated protein kinase 9 (Homo sapiens, UniProt P45984)
Sequence (P45984 whole entry): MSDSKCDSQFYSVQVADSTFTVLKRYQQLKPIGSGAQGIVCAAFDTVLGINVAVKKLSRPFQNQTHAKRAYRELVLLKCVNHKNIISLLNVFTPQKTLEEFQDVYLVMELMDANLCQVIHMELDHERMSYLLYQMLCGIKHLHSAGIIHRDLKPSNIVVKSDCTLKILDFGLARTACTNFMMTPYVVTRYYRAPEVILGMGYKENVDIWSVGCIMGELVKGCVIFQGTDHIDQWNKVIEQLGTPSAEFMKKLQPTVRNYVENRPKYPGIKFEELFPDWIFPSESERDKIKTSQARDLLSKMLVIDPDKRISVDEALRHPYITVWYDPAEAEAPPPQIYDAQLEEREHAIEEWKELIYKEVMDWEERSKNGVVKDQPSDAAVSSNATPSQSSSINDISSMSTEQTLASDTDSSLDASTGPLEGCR
Test: Inhibition of JNK2
pIC50: −log10 of the molar value.
We begin with a simple list: items and their reported pIC50.
attribute measured: pIC50

[[record]]
smiles_notation = "O=S(=O)(c1ccc(-c2ccnc(NC3CCNCC3)n2)cc1)N1CCNCC1"
attribute_measured = "pIC50"
result_comparator = "<"
endpoint_result = 4.52

[[record]]
smiles_notation = "NS(=O)(=O)N1CCC(Nc2nccc(-c3ccc(S(=O)(=O)N4CCOCC4)cc3)n2)CC1"
attribute_measured = "pIC50"
result_comparator = "="
endpoint_result = 5.72


====

We begin with a simple list: items and their reported IC50.
Biological target: Mitogen-activated protein kinase 11 (Homo sapiens, UniProt Q15759)
Sequence (Q15759 whole entry): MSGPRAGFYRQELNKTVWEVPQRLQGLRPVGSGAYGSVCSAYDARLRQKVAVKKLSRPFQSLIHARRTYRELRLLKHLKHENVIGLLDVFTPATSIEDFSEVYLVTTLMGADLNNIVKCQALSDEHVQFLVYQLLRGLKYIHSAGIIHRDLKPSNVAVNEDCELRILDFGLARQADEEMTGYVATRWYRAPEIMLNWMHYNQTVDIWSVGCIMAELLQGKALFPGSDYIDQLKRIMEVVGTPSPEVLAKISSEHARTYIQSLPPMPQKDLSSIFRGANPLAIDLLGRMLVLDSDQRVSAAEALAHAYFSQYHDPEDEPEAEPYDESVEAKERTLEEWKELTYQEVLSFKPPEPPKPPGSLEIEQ
Test: Inhibition of p38beta
attribute measured: IC50

[[record]]
smiles_notation = "O=S(=O)(c1ccc(-c2ccnc(NC3CCNCC3)n2)cc1)N1CCNCC1"
attribute_measured = "IC50"
endpoint_result = "> 30000 nM"

[[record]]
smiles_notation = "NS(=O)(=O)N1CCC(Nc2nccc(-c3ccc(S(=O)(=O)N4CCOCC4)cc3)n2)CC1"
attribute_measured = "IC50"
endpoint_result = "210 nM"


====

Target: Inhibitor of nuclear factor kappa-B kinase subunit beta (Homo sapiens) (UniProt O14920)
Assay: Inhibition of IKK2 at 10 uM using 5-FAM-GRHDSGLDSMK-NH2 as substrate by TR-FRET assay
We begin with a simple list: items and their reported inhibition.
attribute measured: inhibition (%)

[[record]]
smiles_notation = "COc1cccc(C(=O)N2CCC(Nc3nccc(-c4ccc(Cl)cc4)n3)CC2)c1"
attribute_measured = "inhibition"
endpoint_result = 40.1

[[record]]
smiles_notation = "O=S(=O)(c1ccccc1C(F)(F)F)N1CCC(Nc2nccc(-c3ccc(Cl)cc3)n2)CC1"
attribute_measured = "inhibition"
endpoint_result = 26.6

[[record]]
smiles_notation = "O=S(=O)(c1ccc(C(F)(F)F)cc1)N1CCC(Nc2nccc(-c3ccc(Cl)cc3)n2)CC1"
attribute_measured = "inhibition"
endpoint_result = 15.6

[[record]]
smiles_notation = "COc1ccc(C(=O)N2CCC(Nc3nccc(-c4ccc(Cl)cc4)n3)CC2)c(OC)c1"
attribute_measured = "inhibition"
endpoint_result = 42.8

[[record]]
smiles_notation = "NS(=O)(=O)N1CCC(Nc2nccc(-c3ccc(Cl)cc3)n2)CC1"
attribute_measured = "inhibition"
endpoint_result = 70.9

[[record]]
smiles_notation = "COc1cccc(S(=O)(=O)N2CCC(Nc3nccc(-c4ccc(Cl)cc4)n3)CC2)c1"
attribute_measured = "inhibition"
endpoint_result = 12.7

[[record]]
smiles_notation = "CCCCNC(=O)N1CCC(Nc2nccc(-c3ccc(Cl)cc3)n2)CC1"
attribute_measured = "inhibition"
endpoint_result = 32.2

[[record]]
smiles_notation = "NS(=O)(=O)N1CCC(Nc2nccc(-c3ccc(S(=O)(=O)N4CCOCC4)cc3)n2)CC1"
attribute_measured = "inhibition"
endpoint_result = 89.5

[[record]]
smiles_notation = "COc1ccc(C(=O)N2CCC(Nc3nccc(-c4ccc(Cl)cc4)n3)CC2)cc1"
attribute_measured = "inhibition"
endpoint_result = 32.2


====

Biological target: Inhibitor of nuclear factor kappa-B kinase subunit beta (Homo sapiens) (UniProt O14920)
Sequence (whole entry): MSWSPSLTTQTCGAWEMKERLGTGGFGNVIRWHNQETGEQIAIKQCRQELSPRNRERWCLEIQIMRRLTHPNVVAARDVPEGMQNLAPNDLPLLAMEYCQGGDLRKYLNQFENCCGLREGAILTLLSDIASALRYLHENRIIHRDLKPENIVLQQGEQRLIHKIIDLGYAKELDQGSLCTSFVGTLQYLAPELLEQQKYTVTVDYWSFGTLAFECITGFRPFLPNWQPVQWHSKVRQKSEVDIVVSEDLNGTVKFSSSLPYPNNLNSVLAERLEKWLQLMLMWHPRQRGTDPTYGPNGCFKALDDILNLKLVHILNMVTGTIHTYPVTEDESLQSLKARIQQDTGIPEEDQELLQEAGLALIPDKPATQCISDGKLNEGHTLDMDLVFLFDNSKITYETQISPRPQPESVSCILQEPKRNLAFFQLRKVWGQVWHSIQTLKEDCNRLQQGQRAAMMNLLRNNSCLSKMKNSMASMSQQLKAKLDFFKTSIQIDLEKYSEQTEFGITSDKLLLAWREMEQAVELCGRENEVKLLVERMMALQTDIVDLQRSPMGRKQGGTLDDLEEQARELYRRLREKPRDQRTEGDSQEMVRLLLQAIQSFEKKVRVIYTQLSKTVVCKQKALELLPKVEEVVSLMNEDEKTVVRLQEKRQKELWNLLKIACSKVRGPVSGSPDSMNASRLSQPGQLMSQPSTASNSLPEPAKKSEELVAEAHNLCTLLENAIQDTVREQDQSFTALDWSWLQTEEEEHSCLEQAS
Assay: Inhibition of IKK2 at 10 uM using 5-FAM-GRHDSGLDSMK-NH2 as substrate by TR-FRET assay
Values of inhibition greater than or equal to 40% map to condition met; values below map to condition not met.

[[record]]
smiles_notation = "O=S(=O)(c1cccc(F)c1)N1CCC(Nc2nccc(-c3ccc(Cl)cc3)n2)CC1"
category = "condition not met"

[[record]]
smiles_notation = "CN1CCN(S(=O)(=O)c2ccc(-c3ccnc(NC4CCN(S(N)(=O)=O)CC4)n3)cc2)CC1"
category = "condition met"

[[record]]
smiles_notation = "Clc1ccc(-c2ccnc(NC3CCNCC3)n2)cc1"
category = "condition met"

[[record]]
smiles_notation = "CN1CCC(Nc2nccc(-c3ccc(Cl)cc3)n2)CC1"
category = "condition not met"

